# system: human orexin type 2 receptor (Homo sapiens)
# Construct: expressed in transfected cells
# method: Measurement of orexin type 2 receptor agonist activity (calcium fluorescence, Fluo-4 AM, FDSS)
# Type: cell-based
# condition.set: test compound 3 μM; CHO cells expressing human OX2 receptor; DMSO = 0%, orexin A (human) = 100%
# Excerpt: To obtain a cell clone stably expressing human orexin type 2 receptor, human orexin type 2 receptor cDNA was inserted into pcDNA3.1(+) plasmid vector (Invitrogen), and a plasmid DNA for expression of human orexin type 2 receptor (pcDNA3.1(+)/hOX2R) was cloned. The plasmid DNA was introduced into CHO-K1 cell by an electroporation method, and human orexin type 2 receptor expressing clone cells were obtained by limiting dilution method by using G418 drug resistance as a selection marker. […]
test.readout: OX2R agonist activity (3 μM, %)

In [3]: df
Out[3]:
                                   compound  reported
0  CCS(=O)(=O)NC[C@H]1[C@@H](F)CN1C(=O)[C@@H]1C[C@@]1(F)c1ccccc1-c1c(F)cccc1F       104
1  CN(C)S(=O)(=O)NC[C@@H]1CCN1C(=O)C1CC1c1c(F)cccc1-c1c(F)cccc1F (stereo partly shown)        99
2  CS(=O)(=O)NC1CN(C(=O)C2CC2c2ccc(F)cc2-c2c(F)cccc2F)CC1(F)F (stereo not shown)       103
3  CS(=O)(=O)NC12CC1CN(C(=O)C1CC1c1ccccc1-c1c(F)cccc1F)C2 (racemic) [Example 124]       104
4  CCS(=O)(=O)NC[C@@H]1[C@@H](O)CN1C(=O)[C@@H]1C[C@@]1(F)c1ccccc1-c1c(F)cccc1F        96
5  CS(=O)(=O)N[C@@H](CO)C1CCN1C(=O)[C@@H]1C[C@@]1(F)c1ccccc1-c1c(F)cccc1F (stereo partly shown)        95
6  O=C(C1CC1c1ccccc1-c1c(F)cccc1F)N1CC[C@H](NS(=O)(=O)CF)C1 (mixture of isomers)       106

---

# system: human orexin type 2 receptor (Homo sapiens, UniProt O43614)
# Construct: expressed in transfected cells
# method: Measurement of orexin type 2 receptor agonist activity (calcium fluorescence, Fluo-4 AM, FDSS)
# Format: cell-based
# condition.set: test compound 3 μM; CHO cells expressing human OX2 receptor; DMSO = 0%, orexin A (human) = 100%
test.readout: OX2R agonist activity (3 μM, %)

Consider the worked cases shown below.
>>> df
                                   compound                     test_readout  reported
0  CS(=O)(=O)N[C@H]1CCCN(C(=O)C2CC2c2c(F)cccc2-c2c(F)cccc2F)C1 (stereo partly shown) [Example 196]  OX2R agonist activity (3 μM, %)       101
1  CCS(=O)(=O)NC[C@@H]1[C@@H](F)CN1C(=O)[C@@H]1C[C@@]1(F)c1ccccc1-c1c(F)cccc1F [Example 414]  OX2R agonist activity (3 μM, %)       101
2  CS(=O)(=O)NC1CN(C(=O)C2CC2c2ccccc2-c2c(F)cccc2F)CC1(F)F (stereo not shown) [Example 180]  OX2R agonist activity (3 μM, %)        95
3  CS(=O)(=O)NCC1CCN(C(=O)C2CC2c2ccccc2-c2c(F)cccc2F)C1 (racemic) [Example 40]  OX2R agonist activity (3 μM, %)        77

A: Cc1scc(-c2c(F)cccc2F)c1C1CC1C(=O)N1CCC(NS(C)(=O)=O)C1 (racemic) [Example 329]
B: CC1CCN(C(=O)C2CC2c2ccccc2-c2c(F)cccc2F)CC1NS(C)(=O)=O (racemic) [Example 185]
Choose between A and B : whose measured OX2R agonist activity (3 μM, %) value is numerically larger? Lab log: write the label of the selected item as the result.
A
(A: 91%, B: 57%)

---

# system: human orexin type 2 receptor (Homo sapiens)
# Construct: expressed in transfected cells
# Sequence (O43614 1-444): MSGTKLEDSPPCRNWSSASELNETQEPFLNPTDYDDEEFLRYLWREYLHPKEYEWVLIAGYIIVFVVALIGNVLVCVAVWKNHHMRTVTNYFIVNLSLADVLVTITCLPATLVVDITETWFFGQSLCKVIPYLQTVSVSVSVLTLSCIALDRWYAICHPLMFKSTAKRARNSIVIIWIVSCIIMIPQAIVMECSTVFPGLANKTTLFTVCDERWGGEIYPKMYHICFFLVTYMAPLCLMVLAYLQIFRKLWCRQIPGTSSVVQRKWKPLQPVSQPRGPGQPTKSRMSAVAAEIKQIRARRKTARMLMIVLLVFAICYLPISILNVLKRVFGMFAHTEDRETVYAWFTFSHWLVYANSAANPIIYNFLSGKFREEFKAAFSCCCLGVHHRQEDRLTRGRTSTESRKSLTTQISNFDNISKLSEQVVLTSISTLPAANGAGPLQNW
# method: Measurement of orexin type 2 receptor agonist activity (calcium fluorescence, Fluo-4 AM, FDSS)
# Type: cell-based
# condition.set: test compound 3 μM; CHO cells expressing human OX2 receptor; DMSO = 0%, orexin A (human) = 100%
test.readout: OX2R agonist activity (3 μM, %)

>>> df
                                   compound  reported
0  CS(=O)(=O)NC[C@@H]1CCN1C(=O)[C@@H]1C[C@H]1c1ccccc1-c1c(F)cc(F)cc1F        83
1  COCC1(NS(C)(=O)=O)CCN(C(=O)[C@@H]2C[C@@]2(F)c2ccccc2-c2c(F)cccc2F)C1 (stereo partly shown)        95
2  CC1(C(=O)N2CC[C@H](NS(C)(=O)=O)C2)CC1c1ccccc1-c1c(F)cccc1F (stereo partly shown)       100
3  C[C@H]1C[C@H](NS(=O)(=O)N(C)C)CN1C(=O)[C@@H]1C[C@H]1c1ccccc1-c1c(F)cccc1F        96
4  CS(=O)(=O)N[C@H]1CCN(C(=O)C2CC2c2cccc(F)c2-c2c(F)cccc2F)C1 (mixture of isomers)        95
5  CO[C@@H]1CCN(C(=O)[C@@H]2C[C@H]2c2ccccc2-c2c(F)cccc2F)C[C@H]1NS(C)(=O)=O       102
6  CC(C)S(=O)(=O)NC[C@@H]1[C@H](F)CN1C(=O)[C@@H]1C[C@@]1(F)c1ccc(F)cc1-c1c(F)cccc1F        96

---

# system: human orexin type 2 receptor (Homo sapiens)
# Construct: expressed in transfected cells
# Sequence (O43614 1-444): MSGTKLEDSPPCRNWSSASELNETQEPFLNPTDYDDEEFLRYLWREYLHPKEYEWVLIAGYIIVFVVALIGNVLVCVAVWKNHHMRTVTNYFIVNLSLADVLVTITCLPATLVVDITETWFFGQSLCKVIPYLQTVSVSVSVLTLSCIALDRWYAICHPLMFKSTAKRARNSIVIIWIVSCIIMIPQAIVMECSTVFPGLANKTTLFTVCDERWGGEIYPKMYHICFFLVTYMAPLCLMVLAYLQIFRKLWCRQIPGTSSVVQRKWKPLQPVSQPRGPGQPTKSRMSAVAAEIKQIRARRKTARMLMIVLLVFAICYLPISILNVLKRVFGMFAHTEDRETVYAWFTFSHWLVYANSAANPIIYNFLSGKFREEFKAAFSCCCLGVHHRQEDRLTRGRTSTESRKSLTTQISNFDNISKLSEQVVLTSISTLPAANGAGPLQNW
# method: Measurement of orexin type 2 receptor agonist activity (calcium fluorescence, Fluo-4 AM, FDSS)
# Assay type: cell-based
# condition.set: test compound 3 μM; CHO cells expressing human OX2 receptor; DMSO = 0%, orexin A (human) = 100%
test.readout: OX2R agonist activity (3 μM, %)

Before answering, review these 10 worked examples.
                                   compound  reported
0  CS(=O)(=O)NC1CCC2CN(C(=O)C3CC3c3ccccc3-c3c(F)cccc3F)CC21 (centres unmarked)        98
1  CS(=O)(=O)N[C@H]1CCN(C(=O)C2C(c3ccccc3-c3c(F)cccc3F)C2(F)F)C1 (mixture of isomers) [Example 320]       101
2  CS(=O)(=O)NC1CCN(C(=O)C2CC2c2c(F)cccc2-c2c(F)cccc2F)C1 (centres unmarked) [Example 210]        94
3  CS(=O)(=O)N[C@H]1CCCN(C(=O)C2CC2(F)c2ccccc2-c2c(F)cccc2F)CC1 (mixture of isomers)        98
4  CCS(=O)(=O)NC[C@@H]1[C@H](C)CN1C(=O)[C@@H]1C[C@@]1(F)c1ccccc1-c1c(F)cccc1F       103
5  CC1(C)C(C(=O)N2CCC[C@H](NS(C)(=O)=O)CC2)C1c1ccccc1-c1c(F)cccc1F (mixture of isomers)        96
6  C[C@H](NS(=O)(=O)C1CC1)[C@@H]1CCN1C(=O)[C@@H]1C[C@@]1(F)c1ccccc1-c1c(F)cccc1F        99
7  CS(=O)(=O)NC1CCCCN(C(=O)C2CC2c2ccccc2-c2c(F)cccc2F)C1 (racemic)        97
8  CS(=O)(=O)N[C@H]1C[C@H](O)CN(C(=O)[C@@H]2C[C@@]2(F)c2ccccc2-c2c(F)cccc2F)C1        95
9  CN(C)S(=O)(=O)NC[C@@H]1[C@H](F)CN1C(=O)[C@@H]1C[C@@]1(F)c1ccc(F)cc1-c1c(F)cccc1F        98

A: CN(C)S(=O)(=O)N[C@H]1CCN(C(=O)[C@@H]2C[C@H]2c2ccccc2-c2c(F)cccc2F)C1
B: CS(=O)(=O)NC1CCN(C(=O)C2CC2c2ccccc2-c2ccccc2F)C1 (racemic)
# returns the entry with the larger OX2R agonist activity (3 μM, %); inputs A and B Select an item and report its label.
A
(A: 99%, B: 66%)
